experiment: mitochondrial membrane potential change in A549 cells, profiling panel, cell-based, JC-1 fluorescence, basal, 24 h, 100 nL (AID 1138); conditions: higher = more signal;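 also: A549 lung adenocarcinoma cells under basal conditions with no added stimulus; test concentration not given here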
Class boundaries, taken from values of z-score, are as follows: LOW (below -0.5), MEDIUM (-0.5 to below 1), HIGH (1 or more)

[[record]]
molecule = "O=C(N1CCOCC1)[C@@]1(CCS(=O)(=O)c2ccccc2)N=C(c2ccc(OCCCO)cc2)O[C@H]1c1ccccc1"
classification = "MEDIUM"

[[record]]
molecule = "COC(=O)[C@@]1(Cc2ccccc2)[C@H]2c3cc(C(=O)N(C)C)n(CCn4cc([N+](=O)[O-])nc4C)c3C[C@H]2CN1C(=O)c1ccccc1"
classification = "MEDIUM"

[[record]]
molecule = "COC(=O)[C@@]1(Cc2ccc(OC)cc2)[C@H]2c3cc(C(=O)N4CCCC4)n(Cc4cc(C)n(C)n4)c3C[C@H]2CN1C(=O)c1ccccc1"
classification = "HIGH"

[[record]]
molecule = "O=C1C2C=CC(C(O)c3cccc(O)c3)N(Nc3ccccc3)C2C(=O)N1c1ccccc1 (centres undefined)"
classification = "MEDIUM"

[[record]]
molecule = "CCCCC(=C=CC[C@H](O)c1ccc(OCCO)cc1)C[C@H](O)COCc1ccccc1"
classification = "HIGH"

[[record]]
molecule = "COCCOC(=O)N1C(=O)[C@@]2(c3cc(C#CCC(C(=O)OC)C(=O)OC)ccc31)[C@H](c1ccc(OCCO)cc1)N1[C@H](c3ccccc3)[C@H](c3ccccc3)OC(=O)[C@H]1[C@@H]2C(=O)Nc1nc2ccccc2s1"
classification = "LOW"

[[record]]
molecule = "C=CCN1C(=O)[C@@]2(O[C@@H](CCO)[C@H]([Si](C)(C)c3ccc(OC)cc3)[C@H]2C)c2cc(N3CCOC3=O)ccc21"
classification = "LOW"

[[record]]
molecule = "C=C(COC)/C(=C/C[C@H](OC(C)=O)c1cccc(OCCO)c1)c1cnc2ccccc2c1"
classification = "HIGH"

[[record]]
molecule = "CCCC=C(CCC)[C@@H](NC(=O)CCc1ccccc1)c1ccc(C(F)(F)F)cc1"
classification = "HIGH"

[[record]]
molecule = "CN1C=C(C(=O)OCCS(C)(=O)=O)C(C(=O)OCCS(C)(=O)=O)=CC(c2ccc(CO)cc2)=CC1c1cccs1 (centres undefined)"
classification = "HIGH"

[[record]]
molecule = "COc1cc(CO)cc(I)c1O[C@H]1C=C(C(=O)NCCO)C[C@@H](NCC2CCCCC2)[C@@H]1O"
classification = "MEDIUM"

[[record]]
molecule = "CC(C)[C@H]1NC(=O)[C@@]23C(=O)N[C@@H](Cc4ccccc4)C2[C@H](C)[C@@]2(C)O[C@H]2C3/C=C/CCC/C=C/CNC(=O)[C@H](Cc2ccccc2)NC1=O (some centres undefined)"
classification = "LOW"

[[record]]
molecule = "CCc1cccc(NC(=O)O[C@H]2[C@H](OC(=O)Nc3ccccc3)[C@H](OC(=O)Nc3ccccc3)[C@@H](OC)O[C@@H]2CO)c1"
classification = "LOW"

[[record]]
molecule = "C=CCC(OC(C)=O)[C@@H]1[C@@H](N(Cc2ccc(-c3cccc(C(F)(F)F)c3)o2)C(=O)Cc2ccc(OC)cc2)c2cc(OCCCO)ccc2N1C(=O)Cc1ccc2ccccc2c1 (some centres undefined)"
classification = "MEDIUM"


Origin of measurements: PubChem BioAssay
